Below, each entry is listed with its recorded GI50.
- System: U-251
- Method: NCI tumour cell line growth inhibition, 48 h
Activity calls are given as the source filed them. Cut-off read from the data, not from the text of the source: active = GI50 up to about 1.1 µM and inactive = higher.

Worked examples follow.
C=C1C(=O)O[C@@H]2[C@H]1CCC(C)=C1C=CC(=O)[C@]12C = 22.4 µM (inactive)
COc1cc(C2c3cc4c(cc3[C@@H](Nc3ccc(N)cc3)C3COC(=O)[C@H]23)OCO4)cc(OC)c1O (stereo partly specified) = 0.401 µM (active)
Nn1c(CCCCCCCCc2nnc(COc3ccccc3)n2N)nnc1COc1ccccc1 = > 100 µM (inactive)
CC(=O)Oc1ccc2cc(Oc3ccc(Cl)cc3)c(=O)oc2c1 = 42.8 µM (inactive)
CN(C)Cc1cc(/N=N/c2cccc(Cl)c2)ccc1O = 16.9 µM (inactive)
C[C@]12CC[C@H]3[C@@H](CC=C4C[C@@H](O)CC[C@@]43C)[C@@H]1C/C(=C\c1ccncc1)[C@@H]2O = 16.5 µM (inactive)
COc1ccccc1C(=O)N(C)c1ccc(Cl)c(C(=O)OC(C)C)c1 = 67.8 µM (inactive)
COc1cc2cc(OC(C)=O)c3cc4c(cc3c2c(OC)c1OC)OCO4 = > 100 µM (inactive)
COC(=O)c1ccc(O)c2nc3c(C=O)c(O)cc(O)c3nc12 [LOMOFUNGIN] = 0.025 µM (active)
CCCCCCCCCCCCCCCCCCOCC(O)COP(=O)(O)OCC1OC(n2ccc(N)nc2=O)C(O)C1O (stereo unspecified) = 11.9 µM (inactive)

Note: attention shifts to another entry.
// returns reported GI50 for input c1ccc(C2(c3cc4ccccc4[nH]3)OCCO2)nc1
> 100 µM (inactive)
